- Measured target: Lipoprotein-Related Phospholipase A2 (Lp-PLA2) in Human Plasma (Homo sapiens)
- Construct: 40 μL of equally-divided and thawed mixed human plasma is pre-added
- Sequence (Q13093 22-441): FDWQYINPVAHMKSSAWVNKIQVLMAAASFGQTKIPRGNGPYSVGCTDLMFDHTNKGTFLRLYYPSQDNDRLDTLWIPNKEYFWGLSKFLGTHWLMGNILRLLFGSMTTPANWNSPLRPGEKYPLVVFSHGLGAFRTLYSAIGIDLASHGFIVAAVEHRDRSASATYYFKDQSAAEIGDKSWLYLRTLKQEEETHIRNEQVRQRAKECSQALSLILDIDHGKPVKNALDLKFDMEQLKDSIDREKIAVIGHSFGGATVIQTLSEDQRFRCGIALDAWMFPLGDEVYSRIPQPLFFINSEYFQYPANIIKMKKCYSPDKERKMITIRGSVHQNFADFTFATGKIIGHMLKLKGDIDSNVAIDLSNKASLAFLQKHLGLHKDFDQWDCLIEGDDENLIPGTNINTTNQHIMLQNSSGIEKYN
- Assay summary: Determination of Lp-PLA2 in human plasma (Thio-PAF assay)
- Test conditions: mixed human plasma, 2-thio-PAF substrate, 30 minutes pre-incubation at room temperature
Readout type: IC50 (nM)

Worked examples follow.
1. O=c1nc(OCCc2ccc(Oc3ccc(Cl)c(C(F)(F)F)c3)cc2)cc2n1CC[C@@]13CO[C@@H](CN21)C3 [Example 28]: 13.3
2. O=c1nc(OCc2cc(F)c(Oc3ccnc(C(F)(F)F)c3)c(F)c2)cc2n1CC[C@@]13CO[C@@H](CN21)C3 [Example 23]: 4.9
3. N#Cc1cc(COc2cc3n(c(=O)n2)CCC2CCCN32)ccc1Oc1cccc(C(F)(F)F)c1 (stereo not shown) [Example 32]: 45.7

(a) O=c1nc(OCc2cc(F)c(Oc3ccnc(OC(F)(F)F)c3)c(F)c2)cc2n1CCC1COCCN21 (stereo not shown) [Example 54]
(b) O=c1nc(OCc2cc(F)c(Oc3cnc(C(F)(F)F)nc3)c(F)c2)cc2n1CCC13CC(CN21)C3 [Example 20]
(c) O=c1nc(OCc2cc(F)c(Oc3ccnc(C(F)(F)F)c3)c(F)c2)cc2n1CCC1CCCN21 (stereo not shown) [Example 29]
(d) O=c1nc(OCc2cc(F)c(Oc3ccc(Cl)c(C(F)(F)F)c3)c(F)c2)cc2n1CCC1COCCN21 (stereo not shown) [Example 52]
query: List the 4 entries from lowest IC50 to highest IC50 value. Dear reader, please state the labels in the requested order.
result: a, d, b, c
(a: 5.3 nM, d: 10.6 nM, b: 37.5 nM, c: 54.1 nM)
